B1: glmS ribozyme (parent)
chain: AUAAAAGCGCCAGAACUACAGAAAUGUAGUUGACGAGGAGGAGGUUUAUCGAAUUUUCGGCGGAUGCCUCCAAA

- Variants of: B1
- Experimental Details: self-cleavage kobs at 640 uM GlcN6P; higher = faster cleavage; RNA array
- Settings: with glucosamine-6-phosphate
This sample holds only a part of the variants without activity.
Hi, to clarify the labels: YES covers self-cleavage kobs at 640 uM GlcN6P from 0.0007 s⁻¹ upward, NO covers anything below 0.0007 s⁻¹.

# Mutation Descriptor, Group
data = [
    ("A33C G43A U47G", "NO"),
]

Data request: Given A15G U46C , state whether its self-cleavage kobs at 640 uM GlcN6P is at least 0.0007 s⁻¹.
Data returned: YES

Data request: Given A52U C70A , state whether its self-cleavage kobs at 640 uM GlcN6P is at least 0.0007 s⁻¹.
Data returned: NO

Data request: Given A33C A53U G59A U69G , state whether its self-cleavage kobs at 640 uM GlcN6P is at least 0.0007 s⁻¹.
Data returned: NO

Data request: Given G9A C50U , state whether its self-cleavage kobs at 640 uM GlcN6P is at least 0.0007 s⁻¹.
Data returned: NO

Data request: Given G51C U54C , state whether its self-cleavage kobs at 640 uM GlcN6P is at least 0.0007 s⁻¹.
Data returned: NO

Data request: Given U30G U54A C67G , state whether its self-cleavage kobs at 640 uM GlcN6P is at least 0.0007 s⁻¹.
Data returned: NO

Data request: Given U69A , state whether its self-cleavage kobs at 640 uM GlcN6P is at least 0.0007 s⁻¹.
Data returned: NO
